target: collagenase; assay: Collagenase inhibition activity (acetylated 14C collagen hydrolysis, Cawston and Barrett); conditions: 37°, 16 hours, pH 7.5, read-out: IC50 (inhibitor concentration effecting 50% inhibition of the collagenase)
Could you please report measured pIC50 for the items listed next?
Remember, pIC50 is on a log scale: it is -log10 of the molar concentration.

Would you mind telling me what pIC50 value was observed for CCSCCNC(=O)[C@H](Cc1ccccc1)NC(=O)[C@@H](CC(=O)NO)CC(C)C [Example 3] ?
7.70

Would you mind telling me what pIC50 value was observed for CC(=O)NCCNC(=O)[C@H](Cc1ccccc1)NC(=O)[C@@H](CC(=O)NO)CC(C)C [Example 4] ?
7.05

Would you mind telling me what pIC50 value was observed for CC(C)C[C@H](CC(=O)NO)C(=O)N[C@@H](Cc1ccccc1)C(=O)N(C)CCO [Example 2] ?
6.70
